# System: wheat germ agglutinin (Triticum aestivum), Alexa647-labelled
# measurement.notes: Alexa647-WGA lectin binding to printed small molecules – biochemical, small-molecule microarray, 635/667 nm fluorescence, artefact control for SMM control-protein annotation, profiling panel (AID 1140);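 note: score merges 667 nm feature emission with signal to noise over triplicate slides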
# recorded.conditions: WGA-A647 binding, 635 nm fluorescence, higher = more signal
Items are presented alongside their recorded composite z-score.

O=C1O[C@@H](c2ccccc2)[C@@H](c2ccccc2)N2[C@@H](c3ccc(O)cc3)[C@]3(C(=O)Nc4ccccc43)[C@@H](C(=O)N3CCCCCCC3)[C@H]12
1.46
C=C(COC)C(=O)CC[C@H](OC(=O)c1cccnc1)c1ccccc1OCCO
0.18

I have this compound here, O=C(NCCN1CCOCC1)[C@@H]1c2ccccc2C(=O)N(Cc2cc(F)cc(C(F)(F)F)c2)[C@H]1c1ccc(CO)cc1 , and I need its recorded composite z-score.
-0.254

Measured values drawn from PubChem BioAssay for this set.
